src = the supplement of paper PMC6757056

Record form. Attribute: normalized RNA/DNA level with ligand (log10). Fill in for each entry.
B1: library; a variant is named by its letters at N, in order (parent)
chain: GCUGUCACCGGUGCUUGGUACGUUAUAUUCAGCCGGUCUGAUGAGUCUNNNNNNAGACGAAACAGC

Variants of: B1
ASSAY_NOTES: normalized RNA/DNA level with ligand (relative to sTRSVctl = 100) (log10 (% of sTRSVctl)); HEK293T overexpressing SLC46A1; ligand concentration (+) RNA-Seq: 6 mM; higher = less ribozyme self-cleavage, higher mRNA level
ASSAY_SETUP: with (6R,S)-folinic acid; ligand present: yes
Answers are plain numbers.

For every listed record, write down its normalized RNA/DNA level with ligand (log10).
1. GCUGUCACCGGUGCUUGGUACGUUAUAUUCAGCCGGUCUGAUGAGUCUGCACGUAGACGAAACAGC [GCACGU]
2. GCUGUCACCGGUGCUUGGUACGUUAUAUUCAGCCGGUCUGAUGAGUCUCAAAUCAGACGAAACAGC [CAAAUC]
3. GCUGUCACCGGUGCUUGGUACGUUAUAUUCAGCCGGUCUGAUGAGUCUUCGGUAAGACGAAACAGC [UCGGUA]
4. GCUGUCACCGGUGCUUGGUACGUUAUAUUCAGCCGGUCUGAUGAGUCUCUGGGGAGACGAAACAGC [CUGGGG]
5. GCUGUCACCGGUGCUUGGUACGUUAUAUUCAGCCGGUCUGAUGAGUCUGAGUCGAGACGAAACAGC [GAGUCG]
6. GCUGUCACCGGUGCUUGGUACGUUAUAUUCAGCCGGUCUGAUGAGUCUGGGAGUAGACGAAACAGC [GGGAGU]
7. GCUGUCACCGGUGCUUGGUACGUUAUAUUCAGCCGGUCUGAUGAGUCUAUUAAGAGACGAAACAGC [AUUAAG]
8. GCUGUCACCGGUGCUUGGUACGUUAUAUUCAGCCGGUCUGAUGAGUCUUACUGAAGACGAAACAGC [UACUGA]

2.01
2.02
1.98
2.01
2
2
2.01
2.03
